# experiment: in vitro
# Assay type: cell-based, bovine
# appliedConditions: bovine
Peptide text beside a SMILES is read from it.
propertyLabel: hemolysis at 1 h, 150 µM

For this compound ( CC(C)C[C@H](NC(=O)[C@H](CCCCN)NC(=O)[C@H](Cc1ccc2ccccc2c1)NC(=O)[C@H](Cc1ccccc1)NC(=O)[C@@H](N)Cc1ccc2ccccc2c1)C(=O)N[C@@H](CCCCN)C(=O)N[C@@H](CCCCN)C(N)=O [Compound 13] (HELM PEPTIDE1{[N[C@@H](Cc1ccc2ccccc2c1)C(=O)[*:2]].F.[O=C([C@H](Cc1ccc2ccccc2c1)N[*:1])[*:2]].K.L.K.K.[am]}$$$$V2.0; N-terminus assumed) ), measured hemolysis at 1 h, 150 µM is 17.6%

For this compound ( CC(C)C[C@@H](NC(=O)[C@H](CCCCN)NC(=O)[C@@H](Cc1ccc2ccccc2c1)NC(=O)[C@@H](Cc1ccccc1)NC(=O)[C@H](N)Cc1ccc2ccccc2c1)C(=O)N[C@@H](CCCCN)C(=O)N[C@@H](CCCCN)C(N)=O [Compound 3] (HELM PEPTIDE1{[N[C@H](Cc1ccc2ccccc2c1)C(=O)[*:2]].[dF].[O=C([C@@H](Cc1ccc2ccccc2c1)N[*:1])[*:2]].K.[dL].K.K.[am]}$$$$V2.0) ), measured hemolysis at 1 h, 150 µM is < 8%

For this compound ( CC(C)C[C@@H](NC(=O)[C@@H](Cc1cccc2ccccc12)NC(=O)[C@@H](Cc1ccccc1)NC(=O)[C@H](N)Cc1cccc2ccccc12)C(=O)N[C@@H](CCCCN)C(=O)N[C@@H](CCCCN)C(=O)N[C@@H](CCCCN)C(N)=O [Compound 9] (HELM PEPTIDE1{[N[C@H](Cc1cccc2ccccc12)C(=O)[*:2]].[dF].[O=C([C@@H](Cc1cccc2ccccc12)N[*:1])[*:2]].[dL].K.K.K.[am]}$$$$V2.0) ), measured hemolysis at 1 h, 150 µM is < 8%
